Entry source: patent US12257247B2

- MEASUREMENT TARGET: VAV1 (Homo sapiens, UniProt P15498+Q96SW2)
- Construct: A heterozygous VAV1 C-terminal HiBiT knock-in pool was generated at Monte Rosa Therapeutics from a clonal Jurkat cell; endogenous in cells; host or cells: Jurkat clone stably expressing LgBiT, homozygous GSPT1-G575N; heterozygous VAV1-HiBiT knock-in pool
- METHOD DESCRIPTION: VAV1 degradation activity, VAV1-HiBiT knock-in Jurkat luminescence assay (Example A, Table 1)
- Assay type: cell-based
- RUN PARAMETERS: VAV1-HiBiT knock-in Jurkat cells, luminescence read at 6 and 24 hours; read-out: VAV1 DC50 (nM), class
MEASURED QUANTITY: DC50

[[record]]
molecule = "Cn1ccc(NCc2ccc(-c3cccc(C4CCC(=O)NC4=O)c3Cl)cc2)n1 (stereo not shown)"
result_value = "≤ 100 nM"

[[record]]
molecule = "O=C1CCC(c2cccc(-c3ccc(-c4cccn(CC(F)(F)F)c4=O)cc3)c2Cl)C(=O)N1 (stereo not shown)"
result_value = "≤ 100 nM"

[[record]]
molecule = "O=C1CCC(c2cccc(-c3ccc(-n4cccnc4=O)c(F)c3)c2Cl)C(=O)N1 (stereo not shown)"
result_value = "≤ 100 nM"

[[record]]
molecule = "CN1CCC[C@H](c2ccc(-c3cccc(C4CCC(=O)NC4=O)c3Cl)cc2)C1=O (stereo partly shown)"
result_value = "≤ 100 nM"

[[record]]
molecule = "Cc1ccn(C)c(=O)c1-c1ccc(-c2cccc(C3CCC(=O)NC3=O)c2Cl)cc1 (stereo not shown)"
result_value = "≤ 100 nM"

[[record]]
molecule = "Cn1ccc(COc2ncc(-c3cccc(C4CCC(=O)NC4=O)c3Cl)cn2)n1 (stereo not shown)"
result_value = "> 1000 nM"

[[record]]
molecule = "CN1CC(=O)N(c2ccc(-c3cccc(C4CCC(=O)NC4=O)c3Cl)cn2)CC12CC2 (stereo not shown)"
result_value = "> 1000 nM"


---

- MEASUREMENT TARGET: VAV1 (Homo sapiens, UniProt P15498+Q96SW2)
- Construct: A heterozygous VAV1 C-terminal HiBiT knock-in pool was generated at Monte Rosa Therapeutics from a clonal Jurkat cell; endogenous in cells; host or cells: Jurkat clone stably expressing LgBiT, homozygous GSPT1-G575N; heterozygous VAV1-HiBiT knock-in pool
- METHOD DESCRIPTION: VAV1 degradation activity, VAV1-HiBiT knock-in Jurkat luminescence assay (Example A, Table 1)
- Type: cell-based
- RUN PARAMETERS: VAV1-HiBiT knock-in Jurkat cells, luminescence read at 6 and 24 hours; read-out: VAV1 DC50
- Method: Cells were plated at 10,000 cells per well using Multiflo (BioTek) or Multi Drop Combi (Thermo Fisher) in 384-well white solid bottom plates (Corning, 3570BC) in 25 ul volume in RPMI 1640 media (Thermo Fischer, 22400105) containing 10% FBS (Corning, 35-075-CV), 1% Penicillin/Streptomycin (ThermoFisher Scientific, 15140-122), and 1% Endurazine (Nano-Glo Endurazine Live Cell Substrate (Promega, N2571)). Cells were incubated for ˜16 hours at 37° C., 5% CO2. […]
MEASURED QUANTITY: DC50

[[record]]
molecule = "Cn1ccc(COc2ccc(-c3c(C#N)ccc(C4CCC(=O)NC4=O)c3Cl)cc2)n1 (stereo not drawn) [Compound 179]"
result_value = "≥ 10 µM"

[[record]]
molecule = "O=C1CCC(c2cccc(-c3ccc(Cn4cccnc4=O)nc3)c2Cl)C(=O)N1 (stereo not drawn) [Compound 434]"
result_value = "≥ 10 µM"

[[record]]
molecule = "O=C1CCC(c2cccc(-c3ccc(N4C(=O)CCCC4=O)cc3)c2Cl)C(=O)N1 (stereo not drawn) [Compound 205]"
result_value = "0.0164 µM"

